// TL1A Binding Level (Early) lookup, one value per entry
Molecular target: T1, human TL1A extracellular domain with N-terminal HIS and FLAG tag (human, UniProt O95150 72-251)
T1 construct: the whole entry is named
T1 sequence: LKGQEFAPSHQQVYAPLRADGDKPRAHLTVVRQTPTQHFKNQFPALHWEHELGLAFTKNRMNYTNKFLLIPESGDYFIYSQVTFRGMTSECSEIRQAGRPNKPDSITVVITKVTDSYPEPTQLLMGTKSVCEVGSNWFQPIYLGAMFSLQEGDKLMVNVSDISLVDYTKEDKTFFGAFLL
Test: SPR Run 6, purified Ab captured on Protein A, TL1A 5 ug/mL, timepoint 44
Use RU as the unit, but write only the number.

These recorded examples may help you get a feel for the data.
320-490 (antibody, human IgG1, name in Kabat numbering, V domains shown, human IgG1, lambda) VH: QVQLVQSGAEVKKPGASVKVSCKASGYTFTSYDINWVRQAPGQGLEWMGYLNPNSGNTGYAQKFQGRVTMTADRSTSTAYMELSSLRSEDTAVYYCAREVPETAAFEYWGQGTLVTVSS VL: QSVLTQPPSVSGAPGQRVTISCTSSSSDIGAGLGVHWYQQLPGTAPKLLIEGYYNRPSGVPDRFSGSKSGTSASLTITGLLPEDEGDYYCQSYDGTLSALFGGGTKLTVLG: 14
320-463 (antibody, human IgG1, name in Kabat numbering, V domains shown, human IgG1, lambda) VH: QVQLVQSGAEVKKPGASVKVSCKASGYTFTSYDIAWVRQAPGQGLEWMGWLNPNSGNTGYAQKFQGRVTMTADRSTSTAYMELSSLRSEDTAVYYCAREVPETAAFEYWGQGTLVTVSS VL: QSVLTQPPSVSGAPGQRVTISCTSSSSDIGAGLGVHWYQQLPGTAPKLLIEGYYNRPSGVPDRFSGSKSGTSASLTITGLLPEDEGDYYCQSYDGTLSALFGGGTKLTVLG: 102

Query binder follows.
Query: So what does the record say about TL1A Binding Level (Early) for 320-449 (antibody, human IgG1, name in Kabat numbering, V domains shown, human IgG1, lambda) VH: QVQLVQSGAEVKKPGASVKVSCKASGYTFTSYHINWVRQAPGQGLEWMGWLNPNSGNTGYAQKFQGRVTMTADRSTSTAYMELSSLRSEDTAVYYCAREVPETAAFEYWGQGTLVTVSS VL: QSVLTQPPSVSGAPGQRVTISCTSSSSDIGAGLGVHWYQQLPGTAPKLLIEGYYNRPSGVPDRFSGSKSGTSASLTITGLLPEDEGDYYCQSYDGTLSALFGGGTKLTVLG ?
Response: 76
